B1: F1*; the commonest letter at each place (parent)
chain: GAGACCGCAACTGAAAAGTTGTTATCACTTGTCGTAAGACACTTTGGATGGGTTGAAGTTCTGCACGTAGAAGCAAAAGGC

Variants of: B1
Test: fraction ligated after 30 min (ligated reads / total reads); higher = more ligase activity
Conditions: with F1*sub RNA substrate (template-directed ligation), 42 °C
Returns one of condition met or condition not met; condition met when fraction ligated is >= 0.8.

Query :: Reported fraction ligated reaches at least 0.8 for C40T ?
Result :: condition met

Query :: Reported fraction ligated reaches at least 0.8 for T23C A37G ?
Result :: condition met

Query :: Reported fraction ligated reaches at least 0.8 for C28T T49C ?
Result :: condition not met

Query :: Reported fraction ligated reaches at least 0.8 for A37G G50C ?
Result :: condition not met

Query :: Reported fraction ligated reaches at least 0.8 for T25C T43A ?
Result :: condition not met

Query :: Reported fraction ligated reaches at least 0.8 for C28G T45G ?
Result :: condition not met
